# MIC values compiled below
Tested on: E. coli strain 103 (MLST 10, ESBL)
Test: microbe, parasite or virus in culture
Format: cell-based
Settings: Escherichia coli
Numeric only. Scale: µg/mL

{"structure smiles": "O=C(NNC(=O)[C@@H]1CC[C@@H]2CN1C(=O)N2OS(=O)(=O)O)[C@@H]1CCCNC1", "assay metric": "MIC", "data value": 8}
{"structure smiles": "O=C(O)c1c(F)ccc2c1OB(O)[C@@H]1C[C@H]21", "assay metric": "MIC", "data value": 64}
{"structure smiles": "CC1(C)[C@H](C(=O)O)N2C(=O)C[C@H]2S1(=O)=O", "assay metric": "MIC", "data value": 64}

Please fill in: MIC reported for NC(=O)[C@@H]1CC[C@@H]2CN1C(=O)N2OS(=O)(=O)O = 32

Please fill in: MIC reported for NCCONC(=O)[C@@H]1CC[C@@H]2CN1C(=O)N2OS(=O)(=O)O = 2

Please fill in: MIC reported for C[C@@H](O)[C@H]1C(=O)N2C(C(=O)O)=C(S[C@@H]3CN[C@H](C(=O)Nc4cccc(C(=O)O)c4)C3)[C@H](C)[C@H]12 = 4

###

# MIC values compiled below
System: K. pneumoniae strain 125 (MLST 307, ESBL)
Assay: microbe, parasite or virus in culture
Format: cell-based
Conditions: Klebsiella pneumoniae
Numeric only. Scale: µg/mL

Below, 2 molecules whose answers are already recorded.
{"molecule": "NC(=O)[C@@H]1CC[C@@H]2CN1C(=O)N2OS(=O)(=O)O [Avibactam, avibactam]", "MIC [µg/mL]": 32}
{"molecule": "C[C@@H](O)[C@H]1C(=O)N2C(C(=O)O)=C(S[C@@H]3CN[C@H](C(=O)N(C)C)C3)[C@H](C)[C@H]12 [MER, meropenem]", "MIC [µg/mL]": 2}

Please fill in: MIC reported for C[C@@H](O)[C@H]1C(=O)N2C(C(=O)O)=C(S[C@@H]3CN[C@H](C(=O)Nc4cccc(C(=O)O)c4)C3)[C@H](C)[C@H]12 [ERT, ertapenem] = 8

###

System: K. pneumoniae strain 19 (MLST 11, ESBL)
Assay: microbe, parasite or virus in culture
Type: cell-based
Details: Klebsiella pneumoniae
# MIC values compiled below

Below, 5 compounds whose answers are already recorded.
{"structure smiles": "C[C@@H](O)[C@H]1C(=O)N2C(C(=O)O)=C(SCCN=CN)C[C@H]12", "MIC": "1 µg/mL"}
{"structure smiles": "NCCN[C@H]1CC[C@H](CC(=O)N[C@H]2Cc3cccc(C(=O)O)c3OB2O)CC1", "MIC": "≥ 128 µg/mL"}
{"structure smiles": "O=C(NNC(=O)[C@@H]1CC[C@@H]2CN1C(=O)N2OS(=O)(=O)O)[C@@H]1CCCNC1", "MIC": "≥ 128 µg/mL"}
{"structure smiles": "CC1=C[C@@H]2CN(C(=O)N2OS(=O)(=O)O)[C@@H]1C(N)=O", "MIC": "2 µg/mL"}
{"structure smiles": "CC1(C)[C@H](C(=O)O)N2C(=O)C[C@H]2S1(=O)=O", "MIC": "64 µg/mL"}

// next entry
Please fill in: MIC reported for NC(=O)[C@@H]1CC[C@@H]2CN1C(=O)N2OS(=O)(=O)O = ≥ 128 µg/mL

Taken from paper PMC11823609.
